// data source = patent US20080255104A1

assay: Solubility of meloxicam in simulated gastric fluid pH 1.2; type: physicochemical; settings: simulated gastric fluid, pH 1.2, simulated gastric fluid, thermodynamic from solid, pH 1.2, combination of Gelucire® and Neusilin®
Measure: solubility at 72 h (mg/mL)
Your answer should be a plain number; it is taken to be in mg/mL.

Q: solubility at 72 h for Cc1cnc(NC(=O)C2=C(O)c3ccccc3S(=O)(=O)N2C)s1 [meloxicam] ?
Result: 11.5
